Kindly state collision cross section in nitrogen for each of the entries shown.
test: collision cross section in nitrogen (drift tube, single-field); higher = larger gas-phase ion size; conditions: ion type: [M-H]; ion source: ESI; ion mode: Negative;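 also: chemical standards at 10 µM analysed by drift tube IMS-QTOF MS in about 3.95 torr nitrogen, mean of duplicate injections differing ≤1%, mass error below 10 ppm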
Where a name gives a salt, the structure may show the parent alone.
Answers are plain numbers, in Å².

C=CCS(=O)(=O)O [2-Propene-1-sulfonic acid, sodium salt] : 119.1
NC(=S)c1c(Cl)cccc1Cl [Chlorthiamid] : 135.9
O=C(NC(=O)c1c(F)cccc1F)Nc1ccc(Oc2ccc(C(F)(F)F)cc2Cl)cc1F [Flufenoxuron] : 215.8
c1ccc2c(c1)[nH]c1ccccc12 [Carbazole] : 132.9

Here's the next entry for you.
Record O=C(O)c1ccccc1Nc1cccc(C(F)(F)F)c1 [Flufenamic acid] . Reported collision cross section in nitrogen: 160.9

###

experiment: collision cross section in nitrogen (drift tube, single-field); higher = larger gas-phase ion size; conditions: ion type: [M+H]; ion source: APCI; ion mode: Positive
Measure name: collision cross section in nitrogen

CCn1cc(C(=O)O)c(=O)c2ccc(C)nc21 : 147.5 Å²

Please state, for each entry, its recorded collision cross section in nitrogen.
1. CC(C)(O)c1ccc(CNC(=O)c2cccnc2Oc2ccc(F)cc2)cc1
2. OCCC1CCCCN1 (stereo not given)
3. c1ccc2cc(Nc3ccc(Nc4ccc5ccccc5c4)cc3)ccc2c1
4. CCOC(=O)N1CCC(=C2c3ccc(Cl)cc3CCc3cccnc32)CC1

Found:
201.1 Å²
125.7 Å²
201.9 Å²
187.9 Å²

###

experiment: collision cross section in nitrogen (drift tube, single-field); higher = larger gas-phase ion size; settings: ion type: [M+H]; ion source: APCI; ion mode: Positive
Counter-ions that a name gives are not always drawn.
What collision cross section in nitrogen was measured for each of the following?
One number for each entry, in Å².

The examples below pair each entry with its known result.
Cc1ccccc1OP(=O)(Oc1ccccc1)Oc1ccccc1 [Cresyl diphenyl phosphate] : 178.3
Cc1ncc([N+](=O)[O-])n1CCO [Metronidazole] : 133.8
C=CCO/N=C(\CCC)C1C(=O)CC(C)(C)C(C(=O)OC)C1=O (stereo not given) [Alloxydim sodium] : 175.7
Nc1ccc(S(=O)(=O)c2ccc(N)cc2)cc1 [Dapsone] : 155.5
Nc1ccc(S(=O)(=O)Nc2nccs2)cc1 [Sulfathiazole] : 153.5

Each molecule below has a recorded value; state its collision cross section in nitrogen.
1. OCc1cccnc1 [Nicotinyl alcohol]
2. CCc1nn(C)c(C(=O)NCc2ccc(C(C)(C)C)cc2)c1Cl [Tebufenpyrad]
3. COc1cc(OC)c2ccc(=O)oc2c1 [5,7-Dimethoxy-2H-chromen-2-one]
4. O=C(O)c1cccnc1 [Sodium nicotinate]
5. CNc1ccc(NCCO)c2c1C(=O)c1ccccc1C2=O [C.I. Disperse Blue 3]
6. CCCCCCCCc1ccc(Nc2ccc(CCCCCCCC)cc2)cc1 [4,4'-Dioctyldiphenylamine]
7. CCNc1nc(NC(C)(C)C)nc(SC)n1 [Terbutryn]
8. COc1cc(OC)nc(Sc2cccc(Cl)c2C(=O)O)n1 [Pyrithiobac]

Found:
119.2
193.9
139.1
123.5
167.2
218.8
159.9
167.1

List reported collision cross section in nitrogen for each of these molecules:
1. COc1ccc(C(O)(c2cncnc2)C2CC2)cc1 (stereo not given) [Ancymidol]
2. COP(=S)(OC)Oc1ccc(S(=O)(=O)N(C)C)cc1 [Famphur]
3. CC(C)(C)NC[C@H](O)COc1nsnc1N1CCOCC1 [Timolol maleate salt]
4. Cc1[nH]nc2c1N=C(c1ccccc1Cl)c1cc([N+](=O)[O-])ccc1N2
5. COc1ccc(NC(C)=O)cc1N [3'-Amino-4'-methoxyacetanilide]

Found:
1. 164.3
2. 174
3. 176.1
4. 180.2
5. 137.3

For the 2 molecules below, give their collision cross section in nitrogen values.
1. O=C(O)c1ccccc1-n1cc(C(=O)O)c(=O)c2cc(Nc3c(F)cc(F)cc3Cl)c(Cl)cc21 [AVE9423]
2. c1ccc2[nH]nnc2c1 [1,2,3-Benzotriazole]

Found:
[210.6, 120.7]

###

assay: collision cross section in nitrogen (drift tube, single-field); higher = larger gas-phase ion size; conditions: ion type: [M-H]; ion source: ESI; ion mode: Negative
Where a name gives a salt, the structure may show the parent alone.
For each record, write down the corresponding collision cross section in nitrogen.
Answers are plain numbers, in Å².

Below, each entry is followed by its recorded collision cross section in nitrogen result.
NC(=O)Cn1c(=O)cc(CCN2CCN(c3nccc4sccc34)CC2)c2ccc(F)cc21 : 203.8
CCc1cccc(C)c1N(C(=O)C(=O)O)C(C)COC (centres undefined) : 165.9
O=C(NC(=O)c1c(F)cccc1F)Nc1cc(Cl)c(Oc2ncc(C(F)(F)F)cc2Cl)c(Cl)c1 : 224.4
c1ccc2[nH]c(-c3cscn3)nc2c1 : 142
CCCCCCCCc1ccc(S(=O)(=O)O)cc1 [Sodium 4-octylbenzenesulfonate] : 173.9

Each compound below has a recorded value; state its collision cross section in nitrogen.
1. OC[C@@H](O)[C@@H](O)[C@H](O)[C@@H](O)CO
2. Nc1ccc(N=Nc2ccc(-c3ccc(N=Nc4c(S(=O)(=O)O)cc5cc(S(=O)(=O)O)c(N=Nc6ccccc6)c(O)c5c4N)cc3)cc2)c(N)c1
3. CCCCNS(=O)(=O)c1ccccc1 [N-Butylbenzenesulfonamide]
4. c1coc(-c2nc3ccccc3[nH]2)c1
5. COS(=O)(=O)O [Sodium methyl sulfate]
6. NNc1nc(-c2ccc([N+](=O)[O-])cc2)cs1 [2-Hydrazino-4-(4-nitrophenyl)thiazole]

Found:
132.3
304.4
148.3
138
113.1
149

###

Hi there, I'd appreciate the recorded collision cross section in nitrogen for every entry that follows.
assay: collision cross section in nitrogen (drift tube, single-field); higher = larger gas-phase ion size; conditions: ion type: [M+H]; ion source: ESI; ion mode: Positive
Counter-ions that a name gives are not always drawn.
Numbers only, in Å².

# annotated cases, reported collision cross section in nitrogen shown
C1CCC(NC2CCCCC2)CC1 : 146.9
CCC(C)(NC(=O)c1cc(Cl)c(C)c(Cl)c1)C(=O)CCl (stereo not drawn) [Zoxamide] : 175.9
CC(=O)Nc1c(I)c(NC(C)=O)c(I)c(C(=O)O)c1I [Diatrizoate sodium] : 175.5
OCCN1CCNCC1 : 125.6
CN(C)CCCNCCC#N [3-{[3-(Dimethylamino)propyl]amino}propanenitrile] : 131.9
CCCC[C@H]1CN(CC2CCOCC2)C(=O)OC12CCN(C1(C)CCN(C(=O)c3c(C)ncnc3C)CC1)CC2 : 244.1
CC[C@H](NC(=O)c1cc(F)ccc1NS(=O)(=O)c1cccc2cccnc12)c1ccccc1 : 197.4

Now, please, on to the next compound.
// collision cross section in nitrogen value for CC(C)C[C@H]1C(=O)N2CCC[C@H]2[C@]2(O)O[C@](NC(=O)[C@@H]3C=C4c5cccc6[nH]c(Br)c(c56)C[C@H]4N(C)C3)(C(C)C)C(=O)N12 [Bromocriptine mesylate] : 247.4

###

Exercise: for every item that follows, state its recorded collision cross section in nitrogen.
assay: collision cross section in nitrogen (drift tube, single-field); higher = larger gas-phase ion size; settings: ion type: [M-H]; ion source: ESI; ion mode: Negative
Answers are plain numbers, in Å².

Oc1c(Cl)cc(Cl)cc1Sc1cc(Cl)cc(Cl)c1O : 168.8
CC(C)(C)c1cc([N+](=O)[O-])cc(C(C)(C)C)c1O : 162.2
COC(=O)Cc1ccccc1 [Methyl phenylacetate] : 131.4
CC1=NNC(=O)C1 : 117.9

Record Cc1cc(O)c(C(C)C)cc1Cl . Reported collision cross section in nitrogen: 140.5

###

assay: collision cross section in nitrogen (drift tube, single-field); higher = larger gas-phase ion size; conditions: ion type: [M-H]; ion source: ESI; ion mode: Negative
Measure name: collision cross section in nitrogen (Å²)
Answers are plain numbers, in Å².

Respectfully, I request collision cross section in nitrogen for each entry included below.
1. CCCCCCCCCCCCCCCC(=O)O [Hexadecanoic acid]
2. CC(C)CCCCCCCCCCCCCCC(=O)O [Isooctadecanoic acid]
3. O=S(=O)(O)c1ccc(N=Nc2cc(S(=O)(=O)O)c3ccccc3c2O)c2ccccc12 [Azorubine]
4. Nc1ccc(S(=O)(=O)c2ccc(N)cc2)cc1 [Dapsone]

Found:
[169.2, 177.8, 211.8, 157.9]

###

assay: collision cross section in nitrogen (drift tube, single-field); higher = larger gas-phase ion size; conditions: ion type: [M-H]; ion source: ESI; ion mode: Negative
Structures can show the parent of a compound that is named as a salt.
Measure name: collision cross section in nitrogen (Å²)
Answers are plain numbers, in Å².

CN(C)C(=O)Nc1ccccc1 : 137

Field: collision cross section in nitrogen. Fill in for each record below.
1. CCCCCCCCCCCCCCCCOS(=O)(=O)O [Sodium hexyldecyl sulfate]
2. CC(=O)[C@@]1(O)CC[C@H]2[C@@H]3CCC4=CC(=O)CC[C@]4(C)[C@H]3CC[C@@]21C [17alpha-Hydroxyprogesterone]

Found:
181.3
184.4

Origin of the recorded values: the supplement of paper PMC12317010
